- Experimental System: HLA-A*33:01
- Procedure Text: IEDB peptide-MHC binding, purified MHC/competitive/radioactivity; filed as Kd, often an IC50 or EC50 that approximates it; bounds were set here for any values at or beyond the usual limits of such assays
- Experimental Conditions: source organism: SARS coronavirus Tor2
A collection of sequences and their measured Kd

| Sequence Code | Reported Relation | Kd (nM) |
| --- | --- | --- |
| NQLESKVSGK | ≥ | 70000 |
| ATNNVFRLK | = | 6410 |
| SVKSFEIDK | = | 12200 |
| MSYYCKSHK | = | 1590 |
| IIMRCWLCWK | = | 198 |
| FLYLYALIY | = | 17900 |
| LFCLLNRYFR | = | 36.1 |
| SLRCGACIRR | = | 89.5 |
| AQPLPQRQK | ≥ | 77700 |
| NAFNCTFEY | = | 1870 |
| VVSTGYHFR | = | 41.2 |
| VVQRCASNK | ≥ | 77700 |
| QMAPVSAMVR | = | 7320 |
| AMDEFIQRY | ≥ | 77700 |
| ASGNLLLDK | ≥ | 77700 |
| RLISMMGFK | ≥ | 77700 |
| AVHECFVKR | = | 1270 |
| SQASSRSSSR | = | 1320 |
| TAFQHQNSKK | ≥ | 70000 |
| QQVVDADSK | ≥ | 77700 |
| MQTMLFTMLR | = | 13.3 |
| SASAFFGMSR | = | 121 |
| LLFQLCTFTK | = | 6910 |

====

Items are presented alongside their recorded pKd.
- Experimental System: HLA-B*27:05
- Procedure Text: IEDB peptide-MHC binding, purified MHC/direct/fluorescence; filed as Kd, often an IC50 or EC50 that approximates it; bounds were set here for any values at or beyond the usual limits of such assays
- Experimental Conditions: source organism: Marburg virus - Musoke, Kenya, 1980
pKd: −log10 of the molar value.

| Sequence Code | Reported Relation | pKd |
| --- | --- | --- |
| NQQVTNSKY | ≤ | 4.70 |
| ARHGEYAPF | = | 6.77 |

====

Measured IC50, listed per entry for reference.
- Experimental System: HLA-A*11:01
- Procedure Text: IEDB peptide-MHC binding, purified MHC/competitive/fluorescence; bounds were set here for any values at or beyond the usual limits of such assays
- Experimental Conditions: source organism: Sudan ebolavirus

| Sequence Code | Experimental System | IC50 |
| --- | --- | --- |
| KIDNNTFVR | HLA-A*11:01 | 2.74 µM |
| GIYTEGLMH | HLA-A*11:01 | 3.55 µM |
| STTLFKIDN | HLA-A*11:01 | ≥ 146 µM |
| GFRSGVPPK | HLA-A*11:01 | 3.21 µM |

====

- Experimental System: HLA-A*11:01
- Procedure Text: IEDB peptide-MHC binding, purified MHC/direct/fluorescence; filed as Kd, often an IC50 or EC50 that approximates it; bounds were set here for any values at or beyond the usual limits of such assays
- Experimental Conditions: source organism: Marburg virus - Musoke, Kenya, 1980

| Sequence Code | Experimental System | Kd |
| --- | --- | --- |
| NQQVTNSKY | HLA-A*11:01 | ≥ 20 µM |
| ARHGEYAPF | HLA-A*11:01 | ≥ 20 µM |
